Please go through the items and note down their GI50.
tested on: SF-295 CNS; assay: NCI tumour cell line growth inhibition, 48 h

[Q] Given CCOC(=O)c1c(-c2ccc(OC)cc2)c(C#N)c2c(C#N)c(N)nn2c1N , state its recorded GI50.
[A] 2.98 µM

[Q] Given COc1cc(/C=C/C(=O)c2cccc(-n3cc(-c4ccc(Cl)cc4)[nH]c3=O)c2)ccc1O , state its recorded GI50.
[A] 8.08 µM

[Q] Given Oc1ccc(Nc2c3ccccc3nc3occ(Cl)c23)cc1 , state its recorded GI50.
[A] 4.65 µM

[Q] Given BrCc1cccc(C[P+](c2ccccc2)(c2ccccc2)c2ccccc2)c1 , state its recorded GI50.
[A] 35.5 µM

[Q] Given C=CCc1ccc(O)c(-c2ccc(O)c(CC=C)c2)c1 , state its recorded GI50.
[A] 19.6 µM

These data points were gathered from PubChem BioAssay (NCI).
